Biological target: AM1 receptor (Homo sapiens, UniProt O60895+Q16602)
Construct: expressed in transfected cells; host or cells: GPCR/RAMP-overexpressing cells; the AM1 line itself is not described
Sequence (Q16602 23-461): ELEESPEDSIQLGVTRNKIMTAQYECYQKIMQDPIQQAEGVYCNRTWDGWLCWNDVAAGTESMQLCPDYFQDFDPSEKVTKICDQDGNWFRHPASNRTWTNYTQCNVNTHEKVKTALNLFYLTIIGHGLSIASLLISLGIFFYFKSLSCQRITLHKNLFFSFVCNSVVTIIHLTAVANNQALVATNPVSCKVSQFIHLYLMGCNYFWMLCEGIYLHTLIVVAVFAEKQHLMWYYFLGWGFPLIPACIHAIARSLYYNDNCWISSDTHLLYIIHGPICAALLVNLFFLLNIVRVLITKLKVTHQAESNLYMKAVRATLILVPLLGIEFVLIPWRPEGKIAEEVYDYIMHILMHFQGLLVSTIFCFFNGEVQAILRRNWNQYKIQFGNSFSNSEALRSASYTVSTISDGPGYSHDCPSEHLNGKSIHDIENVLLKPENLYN
Sequence (O60895 43-175): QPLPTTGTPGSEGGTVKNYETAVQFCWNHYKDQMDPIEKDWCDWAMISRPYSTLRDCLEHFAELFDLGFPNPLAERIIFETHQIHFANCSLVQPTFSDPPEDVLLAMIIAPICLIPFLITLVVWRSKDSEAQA
Experiment: TR-FRET cAMP accumulation, AM1 receptor cross-screen
Type: cell-based
Details: Table 2; read-out: pIC50 AM1 (converted)
Some molecules, each annotated with its measured IC50.
measuredEndpoint: IC50

- molecule: "CC(C)(C)C(=O)N(CC(=O)Nc1ccc2c(c1)CC1(C2)C(=O)Nc2ncccc21)Cc1nccs1 (stereo not shown)"
  experimentalResult: "25.1 µM"
- molecule: "CN1CCCC(CN(CC(=O)Nc2ccc3c(c2)CC2(C3)C(=O)Nc3ncccc32)C(=O)C(C)(C)C)C1 (racemic) [(±)-6]"
  experimentalResult: "> 10 µM"
- molecule: "CC(C)(C)C(=O)N(CC(=O)Nc1ccc2c(c1)CC1(C2)C(=O)Nc2ncccc21)Cc1ccccc1CO (stereo not shown)"
  experimentalResult: "1.26 µM"
- molecule: "CC(C)(C)C(=O)N(CC(=O)Nc1ccc2c(c1)CC1(C2)C(=O)Nc2ncccc21)Cc1ccccc1C(N)=O (stereo not shown)"
  experimentalResult: "6.31 µM"

---

Molecular target: AM1 receptor (Homo sapiens, UniProt O60895+Q16602)
Construct: expressed in transfected cells; host or cells: GPCR/RAMP-overexpressing cells; the AM1 line itself is not described
Assay: TR-FRET cAMP accumulation, AM1 receptor cross-screen
Assay type: cell-based
Details: Table 2; read-out: pIC50 AM1 (converted)
Method: The ability of the compounds to inhibit cAMP production induced by an EC50 concentration of the maximum agonist activation (information previously published[34]) in GPCR/RAMP-overexpressing cells (i.e., AM2, CGRP cells) was evaluated using cAMP accumulation assays. Each compound was tested at 8 full-log concentrations (10^–11–10^–5 M) including a negative control (blank). The total cAMP was measured using the TR-FRET LANCE cAMP detection kit (PerkinElmer, AD0264), as described previously.[34] […]
Some compounds, each annotated with its measured IC50.

- compound: "CC(N)c1ccccc1CN(CC(=O)Nc1ccc2c(c1)CC1(C2)C(=O)Nc2ncccc21)C(=O)C(C)(C)C (racemic) [(±)-29]"
  resultOperator: ">"
  IC50 (µM): 10
- compound: "CNCc1ccccc1CN(CC(=O)Nc1ccc2c(c1)CC1(C2)C(=O)Nc2ncccc21)C(=O)C(C)(C)C (stereo not drawn)"
  resultOperator: "="
  IC50 (µM): 2
- compound: "CC(C)(C)C(=O)N(CC(=O)Nc1ccc2c(c1)CC1(C2)C(=O)Nc2ncccc21)Cc1ccccc1CNC1CC1 (stereo not drawn)"
  resultOperator: "="
  IC50 (µM): 3.16
- compound: "CC(C)(C)C(=O)N(CC(=O)Nc1ccc2c(c1)CC1(C2)C(=O)Nc2ncccc21)Cc1ccccc1CN1CCC1 (stereo not drawn)"
  resultOperator: "="
  IC50 (µM): 2
- compound: "CC(C)(C)C(=O)N(CC(=O)Nc1ccc2c(c1)CC1(C2)C(=O)Nc2ncccc21)Cc1ccccn1 (stereo not drawn)"
  resultOperator: "="
  IC50 (µM): 50.1
- compound: "CC(C)(C)C(=O)N(CC(=O)Nc1ccc2c(c1)CC1(C2)C(=O)Nc2ncccc21)Cc1ccccc1CN (stereo not drawn)"
  resultOperator: "="
  IC50 (µM): 7.94
